# System: 885512-296-R-J2-PDC complex spheroid viability;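 also: spheroids exposed to the compounds for one week; percent of tumor spheroid viability relative to DMSO vehicle control wells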
# procedure_text: Anticancer human tumor 885512-296-R-J2-PDC patient-derived breast carcinoma cell line growth inhibition [GQUAD]
# test_settings: second compound 3.16 µM; first compound 0.316 µM; hits give low values
Provide the recorded viability, T/C for the entries that follow.

QUERY: For the molecule shown here, Nc1ccn(C2OC(CO)C(O)C2(F)F)c(=O)n1 (stereo not given) + Cc1cnc(CNC(=O)c2c(=O)c3ccc(N4CCCN(C)CC4)nc3n3c2sc2ccccc23)cn1 , give the reported viability, T/C.
RESULT: 0.15%

QUERY: For the molecule shown here, C=CC(=O)N1CCN(c2nc(=O)n(-c3c(C)ccnc3C(C)C)c3nc(-c4c(O)cccc4F)c(F)cc23)C(C)C1 (stereo not given) + CN(C)c1ccc(Nc2c3ccc(NC(=O)CCN4CCCC4)cc3nc3cc(NC(=O)CCN4CCCC4)ccc23)cc1 , give the reported viability, T/C.
RESULT: 120%

QUERY: For the molecule shown here, CC(C)n1c(=O)n(C)c2cnc3cc(F)c(-c4ccc(OCCCN5CCCCC5)nc4)cc3c21 + Cc1cnc(CNC(=O)c2c(=O)c3ccc(N4CCCN(C)CC4)nc3n3c2sc2ccccc23)cn1 , give the reported viability, T/C.
RESULT: 21.7%

QUERY: For the molecule shown here, CCCS(=O)(=O)Nc1ccc(F)c(C(=O)c2c[nH]c3ncc(-c4ccc(Cl)cc4)cc23)c1F + CN(C)c1ccc(Nc2c3ccc(NC(=O)CCN4CCCC4)cc3nc3cc(NC(=O)CCN4CCCC4)ccc23)cc1 , give the reported viability, T/C.
RESULT: 126%

QUERY: For the molecule shown here, CC(C)n1c(=O)n(C)c2cnc3cc(F)c(-c4ccc(OCCCN5CCCCC5)nc4)cc3c21 + Cc1[nH]c2ccc(F)cc2c1-c1nc2c3cccnc3c3ncccc3c2[nH]1 , give the reported viability, T/C.
RESULT: 13.1%

QUERY: For the molecule shown here, CC(=O)O[C@H]1C(=O)[C@@]2(C)[C@H]([C@H](OC(=O)c3ccccc3)[C@]3(O)C[C@H](OC(=O)[C@H](O)[C@@H](NC(=O)c4ccccc4)c4ccccc4)C(C)=C1C3(C)C)[C@]1(OC(C)=O)CO[C@@H]1C[C@@H]2O + Cc1[nH]c2ccc(F)cc2c1-c1nc2c3cccnc3c3ncccc3c2[nH]1 , give the reported viability, T/C.
RESULT: 8.48%

QUERY: For the molecule shown here, CC1COCCN1c1cc(C2(O)CC3CCC(C2)O3)c2cnn(-c3ccn[nH]3)c2n1 (stereo not given) + Cc1cnc(CNC(=O)c2c(=O)c3ccc(N4CCCN(C)CC4)nc3n3c2sc2ccccc23)cn1 , give the reported viability, T/C.
RESULT: 4.73%

QUERY: For the molecule shown here, Cn1ncnc1[C@H]1c2n[nH]c(=O)c3cc(F)cc(c23)N[C@@H]1c1ccc(F)cc1 + CN(C)c1ccc(Nc2c3ccc(NC(=O)CCN4CCCC4)cc3nc3cc(NC(=O)CCN4CCCC4)ccc23)cc1 , give the reported viability, T/C.
RESULT: 36%

QUERY: For the molecule shown here, CCc1c2c(nc3ccc(O)cc13)-c1cc3c(c(=O)n1C2)COC(=O)[C@]3(O)CC + CN(C)c1ccc(Nc2c3ccc(NC(=O)CCN4CCCC4)cc3nc3cc(NC(=O)CCN4CCCC4)ccc23)cc1 , give the reported viability, T/C.
RESULT: 1.26%

QUERY: For the molecule shown here, C=CCn1c(=O)c2cnc(Nc3ccc(N4CCN(C)CC4)cc3)nc2n1-c1cccc(C(C)(C)O)n1 + CN(C)c1ccc(Nc2c3ccc(NC(=O)CCN4CCCC4)cc3nc3cc(NC(=O)CCN4CCCC4)ccc23)cc1 , give the reported viability, T/C.
RESULT: 55.2%
